For each record, write down the corresponding IC50.
Target: UniProt Q9NYY3
Sequence (Q9NYY3 whole entry): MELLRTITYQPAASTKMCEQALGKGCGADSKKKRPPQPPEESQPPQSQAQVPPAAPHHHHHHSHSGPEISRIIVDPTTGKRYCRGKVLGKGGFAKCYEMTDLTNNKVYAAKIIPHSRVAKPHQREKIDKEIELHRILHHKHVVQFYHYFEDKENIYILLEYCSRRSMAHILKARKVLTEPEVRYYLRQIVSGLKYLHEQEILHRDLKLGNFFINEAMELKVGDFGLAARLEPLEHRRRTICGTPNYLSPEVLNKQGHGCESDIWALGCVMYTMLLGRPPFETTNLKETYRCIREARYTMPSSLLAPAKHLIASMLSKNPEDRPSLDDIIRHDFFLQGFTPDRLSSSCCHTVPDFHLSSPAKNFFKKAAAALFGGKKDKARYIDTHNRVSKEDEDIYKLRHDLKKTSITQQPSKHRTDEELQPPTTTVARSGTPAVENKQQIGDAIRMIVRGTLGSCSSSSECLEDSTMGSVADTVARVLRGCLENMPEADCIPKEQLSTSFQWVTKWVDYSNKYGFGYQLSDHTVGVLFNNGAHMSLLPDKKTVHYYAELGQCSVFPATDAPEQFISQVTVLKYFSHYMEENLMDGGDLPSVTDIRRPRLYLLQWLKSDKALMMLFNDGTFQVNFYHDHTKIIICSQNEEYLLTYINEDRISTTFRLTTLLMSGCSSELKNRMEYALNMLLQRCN
Experiment: PLK2 human kinase inhibition, SPA
Type: biochemical
Details: read-out: PLK2 pIC50 (converted)

O=C1NCc2ccc(cc2)-c2ccnc(n2)Nc2ccc(N3CCOCC3)c(c2)CN2C[C@H](O)C[C@@H]12 = > 10 µM

Look up IC50 for the entries below, preserving their order.
1. CN(C)Cc1cc2cc(c1)Nc1nccc(n1)-c1cccc(c1)CNC(=O)[C@@H]1CCCN1C2
2. CC(C)Nc1cc2cc(c1)Nc1nccc(n1)-c1ccc(cc1)CN(C)CCNC(=O)C1CCN(CC1)C2
3. C[C@@H]1NCc2ccc(Cl)c(c2)Nc2nccc(n2)-c2cccc(c2)CNC1=O
4. CN(C)CCNCc1cc2cc(c1)Nc1nccc(n1)-c1cccc(c1)CNC(=O)[C@@H]1CCCN1C2
5. O=C1CN2CCN(CC2)Cc2cc(ccc2N2CCOCC2)Nc2nccc(n2)-c2ccc(cc2)OCCN1
6. CN1CCCNC(=O)[C@H](CO)NCc2cc(Br)cc(c2)Nc2nccc(n2)-c2ccc(cc2)C1

[A]
1. > 10 µM
2. > 10 µM
3. > 10 µM
4. > 10 µM
5. > 10 µM
6. > 10 µM

----------
Target: PLK3 (h) (Homo sapiens, UniProt Q9H4B4)
Sequence (Q9H4B4 whole entry): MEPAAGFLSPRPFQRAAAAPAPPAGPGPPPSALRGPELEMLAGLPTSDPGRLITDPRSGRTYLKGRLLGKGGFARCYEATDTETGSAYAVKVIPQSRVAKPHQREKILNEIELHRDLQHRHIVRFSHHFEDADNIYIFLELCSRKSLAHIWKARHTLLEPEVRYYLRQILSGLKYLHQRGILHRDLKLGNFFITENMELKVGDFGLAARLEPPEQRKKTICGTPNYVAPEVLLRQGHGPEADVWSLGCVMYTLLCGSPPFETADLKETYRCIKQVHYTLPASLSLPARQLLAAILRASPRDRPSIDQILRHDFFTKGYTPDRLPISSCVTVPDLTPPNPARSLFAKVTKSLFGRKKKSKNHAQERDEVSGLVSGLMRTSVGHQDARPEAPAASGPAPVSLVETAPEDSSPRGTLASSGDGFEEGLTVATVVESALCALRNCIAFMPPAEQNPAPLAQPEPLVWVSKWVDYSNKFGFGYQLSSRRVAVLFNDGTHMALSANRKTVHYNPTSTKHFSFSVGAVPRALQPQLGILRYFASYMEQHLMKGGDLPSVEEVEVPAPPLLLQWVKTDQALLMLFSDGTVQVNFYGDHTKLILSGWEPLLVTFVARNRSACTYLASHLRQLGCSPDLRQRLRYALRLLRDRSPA
Test: PLK3 human kinase inhibition, SPA
Format: biochemical
Conditions: read-out: PLK3 pIC50 (converted)
Kindly supply the reported IC50 values for the records listed here.

CN1CCCNC(=O)CN2CCN(CC2)Cc2cccc(c2)Nc2nccc(n2)-c2ccc(cc2)C1 = > 10 µM
O=C1NCc2cccc(c2)-c2ccnc(n2)Nc2cc(CNC3CCOCC3)cc(c2)CN2CCC[C@@H]12 = > 10 µM

Required: IC50, one value per compound below.
1. COc1ccc2cc1CN(C)CCNC(=O)C1CCN(CC1)Cc1cc(cc(N3CCOCC3)c1)Nc1nccc-2n1
2. O=C1CN2CCN(CC2)Cc2cccc(c2)Nc2nccc(n2)-c2ccnc(c2)CCCN1
3. COc1ccc2cc1CN(C)CCNC(=O)C1CCN(CC1)Cc1cc(NCCc3ccccc3)cc(c1)Nc1nccc-2n1
4. O=C1NCCNc2cc(ccn2)-c2ccnc(n2)Nc2ccc(N3CCOCC3)c(c2)CN2CCC1CC2
5. C[C@@H]1NCc2ccc(Cl)c(c2)Nc2nccc(n2)-c2cccc(c2)CNC1=O
6. O=C1CN2CCN(CC2)Cc2cc(ccc2N2CCOCC2)Nc2nccc(n2)-c2cccc(c2)OCCN1
7. COc1ccc2cc1CN1CCN(CC1)CC(=O)N(C)CCN(C)c1ccc(cn1)-c1ccnc(n1)N2
8. CN1CCCNC(=O)[C@H](CO)NCc2cccc(c2)Nc2nccc(n2)-c2ccc(cc2)C1

[A]
["> 10 µM", "> 10 µM", "> 10 µM", "> 10 µM", "> 10 µM", "> 10 µM", "> 10 µM", "> 10 µM"]

I need IC50 for every entry listed below, if you could help.
1. CN1CCCNC(=O)[C@@H]2CCCN2Cc2cc(cc(N3CCOCC3)c2)Nc2nccc(n2)-c2ccc(cc2)C1
2. O=C1NCc2cccc(c2)-c2ccnc(n2)Nc2ccc(cc2)CN2CCC[C@@H]12
3. CN1CCCNC(=O)[C@H](CO)NCc2cc(cc(N3CCOCC3)c2)Nc2nccc(n2)-c2ccc(cc2)C1

[A]
["> 10 µM", "> 10 µM", "> 10 µM"]

I would be grateful if you could provide IC50 for each of the following entries.
1. COc1ccc2cc1CN(C)CCCNC(=O)C1CCN(CC1)Cc1cc(Br)cc(c1)Nc1nccc-2n1
2. O=C1NCc2cccc(c2)-c2ccnc(n2)Nc2ccc(C(=O)N3CCOCC3)c(c2)CN2CCC[C@@H]12

[A]
["> 10 µM", "> 10 µM"]
